Sourced from patent US8778635B2

# Previously Tested, See - Table II: ΔTm values compiled below
test: Circular dichroism melting temperature (Tm), CD signal at 222 nm versus temperature
Type: physicochemical
assay-conditions: repeated from Table II; modified 3M-GGBP versus 3M-GGBP
parameter-measured: Previously Tested, See - Table II: ΔTm

[[record]]
molecule = "Modified protein 4: 3M-GGBP (SEQ ID NO:3) with substitution N130D (protein) ADTRIGVTIYKYDDNFMSVVRKAIEQDAKAAPDVQLLMNDSQNDQSKQNDQIDVLLAKGVKALAINLVDPAAAGTVIEKARGQNVPVVFFNKEPSRKALDSYDKAYYVGTDSKESGIIQGDLIAKHWAADQGWDLNKDGQIQFVLLKGCPGHPDAEARTTYVIKELNDKGIKTEQLQLDTAMWDTAQAKDKMDAWLSGPNANKIEVVIANNDRMAMGAVEALKAHNKSSIPVFGVDASPEALALVKSGALAGTVLNDANNQAKATFDLAKNLADGKGAADGTNWKIDNKVVRVPYVGVDKDNLAEFSKK"
recorded_value = "−5.2"

[[record]]
molecule = "Modified protein 11: 3M-GGBP (SEQ ID NO:3) with substitutions K270Y, N271S (protein) ADTRIGVTIYKYDDNFMSVVRKAIEQDAKAAPDVQLLMNDSQNDQSKQNDQIDVLLAKGVKALAINLVDPAAAGTVIEKARGQNVPVVFFNKEPSRKALDSYDKAYYVGTDSKESGIIQGDLIAKHWAANQGWDLNKDGQIQFVLLKGCPGHPDAEARTTYVIKELNDKGIKTEQLQLDTAMWDTAQAKDKMDAWLSGPNANKIEVVIANNDRMAMGAVEALKAHNKSSIPVFGVDASPEALALVKSGALAGTVLNDANNQAKATFDLAYSLADGKGAADGTNWKIDNKVVRVPYVGVDKDNLAEFSKK"
recorded_value = "−3.5"

